Reference source: patent US20250163057A1

Here the recorded IC50 is given for each entry.
Test system: Cullin-3 (CUL3) neddylation
Assay: AlphaLISA assay for Cullin-3 (CUL3) neddylation in TF 1 cells
Type: cell-based
Details: 3 hours treatment

Worked examples, 2 compounds total:
CCN1C(=O)[C@@H](NC(=O)c2cccc(C(F)(F)F)c2)[C@@H](c2ccc(F)cc2)c2c(C(=O)N3CCC[C@H]3C#N)nn(C3CCOCC3)c21 [Compound I-350] :: ≤ 0.1 µM
CCN1C(=O)[C@@H](NC(=O)c2cccc(C(F)(F)F)c2)[C@@H](c2ccc(F)cc2)c2c(C(=O)N3[C@H](C#N)C[C@H]4C[C@H]43)nn([C@@H]3CCOC3)c21 (single isomer, unassigned) [Compound I-482] :: ≤ 0.1 µM

**Q:** Give the measured IC50 of CCN1C(=O)[C@@H](NC(=O)c2cccc(C(F)(F)F)c2)[C@@H](c2ccc(F)cc2)c2c(C(=O)N(C)[C@@H](C#N)C3COC3)nn(-c3ccccc3)c21 (single isomer, unassigned) [Compound I-294] .
**A:** ≤ 0.1 µM

**Q:** Give the measured IC50 of CCN1C(=O)[C@@H](NC(=O)c2cccc(C(F)(F)F)c2)[C@@H](c2ccc(F)cc2)c2c(CN(C)C#N)nn(-c3ccccc3)c21 [Compound I-129] .
**A:** 0.1 to 1 µM

**Q:** Give the measured IC50 of CCN1C(=O)[C@@H](NC(=O)c2cccn(C3CC3)c2=O)[C@@H](C2CC2)c2c(C(=O)N3[C@H](C#N)C[C@H]4C[C@H]43)nn(C3CCOCC3)c21 [Compound I-624] .
**A:** ≤ 0.1 µM

**Q:** Give the measured IC50 of CCN1C(=O)[C@@H](NC(=O)c2cccc(C(F)(F)F)c2)[C@@H](c2ccc(F)cc2)c2c([C@@H](C)NC#N)nn(-c3ccccc3)c21 (mixture of isomers) [Compound I-167] .
**A:** ≤ 0.1 µM

**Q:** Give the measured IC50 of CCN1C(=O)[C@@H](NC(=O)c2cccc(C(F)(F)F)c2)[C@@H](c2ccc(F)cc2)c2c(C(=O)N(C)CC#N)nn(-c3ccccc3)c21 (racemic) [Compound I-282] .
**A:** ≤ 0.1 µM

**Q:** Give the measured IC50 of CCN1C(=O)[C@H](NC(=O)c2cccc(C(F)(F)F)c2)[C@H](c2ccc(F)cc2)c2c(C(=O)N3[C@H](C#N)C[C@H]4C[C@H]43)nn([C@@H]3CCOC3)c21 (single isomer, unassigned) [Compound I-704] .
**A:** 0.1 to 1 µM

**Q:** Give the measured IC50 of CCN1C(=O)[C@@H](NC(=O)c2cccn(C3CC3)c2=O)[C@@H](C2CC2)c2c(C(=O)N3[C@H](C#N)C[C@H]4C[C@H]43)nn(C3CCOCC3)c21 [Compound I-625] .
**A:** > 1 µM

**Q:** Give the measured IC50 of CCN1C(=O)[C@@H](NC(=O)c2cccc(C(F)(F)F)c2)[C@@H](C)c2c(C(=O)N3[C@H](C#N)C[C@H]4C[C@H]43)nn(C3CCOCC3)c21 [Compound I-387] .
**A:** ≤ 0.1 µM

----------
Test system: Cullin-3 (CUL3) neddylation
Test: AlphaLISA assay for Cullin-3 (CUL3) neddylation in TF 1 cells
Format: cell-based
Details: 3 hours treatment
PARAMETER MEASURED: IC50

CCN1C(=O)[C@@H](NC(=O)c2cccc(C(F)(F)F)c2)[C@@H](c2ccc(F)cc2)c2c(C(=O)N3CCOC[C@H]3C#N)nn(-c3ccccc3)c21 (mixture of isomers) :: ≤ 100 nM
CCN1C(=O)[C@H](NC(=O)c2cccc(C(F)(F)F)c2)[C@H](c2ccc(F)cc2)c2c(C(=O)N3[C@H](C#N)C[C@H]4C[C@H]43)nn([C@@H]3CCOC3)c21 (single isomer, unassigned) [Compound I-562] :: > 1000 nM
CCN1C(=O)[C@@H](NC(=O)c2cccc(C(F)(F)F)c2)[C@@H](c2ccc(F)cc2)c2c(C(=O)N3[C@H](C#N)C[C@H]4C[C@H]43)nn([C@@H]3CCOC3)c21 (single isomer, unassigned) [Compound I-583] :: > 1000 nM
COC(=O)/C=C/CN(C)Cc1nn(-c2ccccc2)c2c1[C@H](c1ccc(F)cc1)[C@H](NC(=O)c1cccc(C(F)(F)F)c1)C(=O)N2CC(C)C :: 100 to 1000 nM

**Q:** Give the measured IC50 of CCN1C(=O)[C@@H](NC(=O)c2cccc(C(F)(F)F)c2)[C@@H](c2ccc(F)cc2)c2c(C(=O)N(C)CC#N)nn(-c3ccccc3)c21 (racemic) [Compound I-398] .
**A:** > 1000 nM

----------
Target: DCN1 (DCUND1) protein PONY domain (Homo sapiens (Human), UniProt Q96GG9)
Sequence (Q96GG9 60-248): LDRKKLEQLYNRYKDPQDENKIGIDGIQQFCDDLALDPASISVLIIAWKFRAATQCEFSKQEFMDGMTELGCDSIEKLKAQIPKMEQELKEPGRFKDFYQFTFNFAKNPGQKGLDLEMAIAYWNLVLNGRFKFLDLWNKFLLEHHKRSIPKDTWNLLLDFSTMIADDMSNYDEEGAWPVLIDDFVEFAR
Test: TR-FRET assay, DCN1 binding with FAM-labeled probe
Settings: 24 hr after treatment with compound; read-out: TR FRET IC50 24 hr
Here the recorded IC50 is given for each entry.

CCN1C(=O)[C@@H](NC(=O)c2nccc(C(F)(F)F)n2)[C@H](c2ccc(F)cc2)c2c(CC(=O)N(C)CC#N)nn(-c3ccccc3)c21 [Compound I-640] :: 1000 to 3000 nM

**Q:** Give the measured IC50 of CCN1C(=O)[C@@H](NC(=O)c2cccc(C(F)(F)F)c2)[C@@H](c2ccc(F)cc2)c2c(C(=O)N(C)[C@H](C)C#N)nn(C3CCOCC3)c21 [Compound I-367] .
**A:** ≤ 200 nM

**Q:** Give the measured IC50 of CCN1C(=O)[C@@H](NC(=O)c2ccc(C3CCN(C)CC3)cc2)[C@@H](C2CC2)c2c(C(=O)N3[C@H](C#N)C[C@H]4C[C@H]43)nn(C3CCOCC3)c21 [Compound I-653] .
**A:** 1000 to 3000 nM

**Q:** Give the measured IC50 of CCN1C(=O)[C@@H](NC(=O)c2cccc(C(F)(F)F)c2)[C@@H](c2ccc(F)cc2)c2c([C@@H](C)N(C)C#N)nn(-c3ccccc3)c21 [Compound I-44] .
**A:** ≤ 200 nM

**Q:** Give the measured IC50 of CCN1C(=O)[C@@H](NC(=O)c2cccc(C(F)(F)F)c2)[C@@H](C2CC2)c2c(C(=O)N3CCNC[C@H]3C#N)nn(C3CCOCC3)c21 [Compound I-582] .
**A:** ≤ 200 nM

**Q:** Give the measured IC50 of CCN1C(=O)[C@@H](NC(=O)c2cccc(C(F)(F)F)c2)[C@@H](c2ccc(F)cc2)c2c(NC(=O)CCl)nn(-c3ccccc3)c21 (racemic) [Compound I-161] .
**A:** ≤ 200 nM

**Q:** Give the measured IC50 of C=C(CC(=O)NCc1nn(-c2ccccc2)c2c1[C@@H](c1ccc(F)cc1)[C@H](NC(=O)c1cccc(C(F)(F)F)c1)C(=O)N2CC)C(=O)OC [Compound I-132] .
**A:** ≤ 200 nM

**Q:** Give the measured IC50 of CCN1C(=O)[C@@H](NC(=O)c2cccc(C(F)(F)F)c2)[C@@H](C2CC2)c2c(C(=O)N3CS(=O)(=O)C[C@@H]3C#N)nn(-c3ccccc3)c21 [Compound I-521] .
**A:** ≤ 200 nM

**Q:** Give the measured IC50 of C=CC(=O)N[C@@H](C)c1nn(-c2ccccc2)c2c1[C@H](c1ccc(F)cc1)[C@H](NC(=O)c1cccc(C(F)(F)F)c1)C(=O)N2CC (mixture of isomers) [Compound I-143] .
**A:** 200 to 1000 nM

**Q:** Give the measured IC50 of CCN1C(=O)[C@@H](NC(=O)Cc2ccccc2)[C@@H](C2CC2)c2c(C(=O)N3[C@H](C#N)C[C@H]4C[C@H]43)nn(C3CCOCC3)c21 [Compound I-595] .
**A:** 1000 to 3000 nM

**Q:** Give the measured IC50 of CCN1C(=O)[C@@H](NC(=O)c2cccc(C(F)(F)F)c2)[C@@H](c2ccc(F)cc2)c2c(CNC(=O)/C=C(\C)C(=O)OC)nn(-c3ccccc3)c21 (racemic) [Compound I-150] .
**A:** 200 to 1000 nM

----------
Here the recorded pIC50 is given for each entry.
Target: DCN1 (DCUND1) protein PONY domain (Homo sapiens (Human), UniProt Q96GG9)
Test: TR-FRET assay, DCN1 binding with FAM-labeled probe
Conditions: 24 hr after treatment with compound; read-out: TR FRET IC50 24 hr
pIC50: −log10 of the molar value.

Worked examples, 3 molecules total:
CCN1C(=O)[C@@H](NC(=O)c2cccc(C(F)(F)F)c2)[C@@H](c2ccc(F)cc2)c2c(C(=O)N3C[C@H](NC)C[C@H]3C#N)nn(C3CCOCC3)c21 (mixture of isomers) [Compound I-509] :: ≥ 6.70
CCN1C(=O)[C@@H](NC(=O)c2cccc(C(F)(F)F)c2)[C@@H](C2CC2)c2c(C(=O)N3CCS(=O)(=O)C[C@H]3C#N)nn(C3CCOCC3)c21 (mixture of isomers) [Compound I-379] :: ≥ 6.70
C=CS(=O)(=O)N(C)Cc1nn(-c2ccccc2)c2c1[C@H](c1ccc(F)cc1)[C@H](NC(=O)c1cccc(C(F)(F)F)c1)C(=O)N2CC (racemic) [Compound I-1] :: ≥ 6.70

**Q:** Form: Entry = CCN1C(=O)[C@@H](NC(=O)COc2ccc3c(c2)CCC3)[C@@H](C2CC2)c2c(C(=O)N3[C@H](C#N)C[C@H]4C[C@H]43)nn(C3CCOCC3)c21 [Compound I-554] | System = DCN1 (DCUND1) protein PONY domain (Homo sapiens (Human), UniProt Q96GG9) | pIC50 = ____
**A:** 5.52 to 6.00

**Q:** Form: Entry = CCN1C(=O)[C@@H](NC(=O)c2cccc(C(F)(F)F)c2)[C@@H](C2CC2)c2c(C(=O)N3CCC[C@H]3C#N)nn(C3CCOCC3)c21 [Compound I-348] | System = DCN1 (DCUND1) protein PONY domain (Homo sapiens (Human), UniProt Q96GG9) | pIC50 = ____
**A:** ≥ 6.70
